Each record here notes measured TGI.
System: HCT-116 colon
experimentNotes: NCI tumour cell line growth inhibition, 48 h
metric: TGI (µM)

# molecule, metric, unitOfMeasurement, valueQualifier, measuredValue
rows = [
    ("N#C/C(=C1/c2cc([N+](=O)[O-])ccc2-c2c1cc([N+](=O)[O-])cc2[N+](=O)[O-])N1CCCCC1", "TGI", "µM", ">", 100),
    ("COC(=O)[C@]1(C)CCC[C@@]2(C)[C@@H]3C[C@@H]4[C@H]5C[C@@]3(CC[C@@H]21)C[C@@]45C", "TGI", "µM", "=", 45.2),
    ("CCN(CC)C1Oc2cc3c(cc2C(c2cc(OC)c(OC)c(OC)c2)C1C)OCO3 (centres undefined)", "TGI", "µM", "=", 13.4),
    ("CC(C)(C)n1cc(-c2ccnc(NCCCNS(=O)(=O)c3ccc(Br)cc3)c2)c(-c2cccc(O)c2)n1", "TGI", "µM", "=", 2.6),
    ("Cc1c(Cl)cccc1NC(=O)/C(Cl)=C(\\Cl)C(=O)O", "TGI", "µM", "=", 27.4),
    ("O=c1[nH]c2cc([N+](=O)[O-])c(Nc3c4ccccc4nc4ccccc34)c([N+](=O)[O-])c2[nH]1", "TGI", "µM", "=", 7.39),
    ("N#Cc1c(C[n+]2ccccc2)c2ccccc2oc1=O", "TGI", "µM", ">", 100),
    ("Cc1nc2cccc(F)c2c(=O)n1-c1nnc(C(F)(F)F)s1", "TGI", "µM", ">", 10),
    ("CCCCCCNC(=O)Oc1ccc(/C(=C(/C)Cc2ccc(OC)cc2)c2ccc(OCCN(C)C)cc2)cc1", "TGI", "µM", "=", 10.3),
]

====

System: HCT-116 colon
experimentNotes: NCI tumour cell line growth inhibition, 48 h
Each record here notes measured TGI.

# compound, TGI
measured = [
    ("CCN(CC)/[N+]([O-])=N/O", "> 100 µM"),
    ("COc1cc(C2c3cc4c(cc3[C@@H](OCCN(C)C)C3COC(=O)[C@H]23)OCO4)cc(OC)c1O (stereo not given in full)", "7.33 µM"),
    ("Cn1cc(C2=C(c3cn(C)c4cc(N)ccc34)C(=O)NC2=O)c2ccccc21", "> 25 µM"),
    ("O=C(NCCCCCCO)c1cccc2cc3ccccc3nc12", "33.1 µM"),
    ("Oc1c(CN2CCCC2)cc(CSCc2ccccc2)c2cccnc12", "10.1 µM"),
    ("O=[N+]([O-])c1ccc2nc(/C=C(\\O)c3ccc(Cl)cc3)c(/C=C(\\O)c3ccc(Cl)cc3)nc2c1", "> 100 µM"),
    ("NC(=S)NNC(=S)NC(=O)c1ccco1", "> 10 µM"),
    ("ClCc1ccc(C2OCCO2)cc1", "> 52.1 µM"),
    ("CCOC(=O)Nc1nc2cc(OCC)ccc2s1", "> 100 µM"),
    ("CC1(C)[C@@H](OC(N)=O)C=C[C@]2(CO)[C@H]3CC[C@]4(C)[C@@H](c5ccc(=O)oc5)[C@@H](Cl)C[C@]4(O)C3=CC[C@@H]12", "0.0104 µM"),
]

====

Test system: KM20L2 colon
experimentNotes: NCI tumour cell line growth inhibition, 48 h
Each record here notes measured TGI.

# molecule, TGI
rows = [
    ("CC1=NOC(=O)C1N=Nc1ccc(Br)c(C)c1 (centres undefined)", "> 100 µM"),
    ("Cc1c(C(=O)CC(=O)C(=O)Nc2cc(Cl)ccc2Cl)[n+](=O)c2ccccc2n1[O-]", "> 100 µM"),
    ("O=C1CCN2CCC(=O)c3c2c(cc2ccccc32)N1", "> 100 µM"),
    ("COC(=O)C(CC(=O)c1c[nH]c2ccccc12)c1c[nH]c2ccccc12 (centres undefined)", "34 µM"),
    ("Nc1ccc(C(=O)CC2(O)C(=O)Nc3c(Cl)cc(Cl)cc32)cc1 (centres undefined)", "> 100 µM"),
    ("CCC[CH2][Sn]1([CH2]CCC)[O]C(=O)c2ccc(N)cc2[O]1", "3.17 µM"),
    ("CS(=O)(=O)[O-].CS(=O)(=O)[O-].NC1CCCCC1N.[Pt+4] (centres undefined)", "> 100 µM"),
    ("CC1=C(/C=C/C(C)=C/C=C/C(C)=C/C=C/C=C(C)/C=C/C=C(C)/C=C/C2=C(C)C(=O)C(O)CC2(C)C)C(C)(C)CC(O)C1=O (centres undefined)", "> 100 µM"),
    ("COC(=O)C1Cc2c([nH]c3ccccc23)C(c2ccccc2O)N1Cc1ccccc1 (centres undefined)", "> 46.4 µM"),
    ("COc1ccc2ccccc2c1CN1CCOCCOCCN(Cc2c(OC)ccc3ccccc23)CCOCCOCC1", "> 100 µM"),
    ("Clc1ccc2c(c1)[nH]c1c2nc2sccn21", "> 100 µM"),
    ("COC(=O)c1ccc(C(=O)OC)c2nc3cc(C)ccc3nc12", "> 100 µM"),
    ("CS(=O)(=O)NNS(=O)(=O)c1ccc(Cl)cc1", "> 100 µM"),
    ("Cc1cccc(N=C2NC(=O)C(CC(=O)Nc3ccc(C)cc3C)S2)c1 (centres undefined)", "> 100 µM"),
    ("COc1cc(C2c3cc4c(cc3[C@@H](N(C)C)[C@H]3COC(=O)C23)OCO4)cc(OC)c1O (some centres undefined)", "54.1 µM"),
    ("COc1cc(/C=C/c2ccc(OC)c(OC)c2OC)cc(OC)c1OC", "55.3 µM"),
    ("Cn1c(=O)n(CC2CS2)c2ccccc21 (centres undefined)", "> 100 µM"),
    ("C=CCCCCn1c2ccccc2c2c(C)c3cnccc3c(C)c21", "31.9 µM"),
    ("Clc1ccc2ns[s+]c2c1", "> 100 µM"),
]

====

System: SNB-19 CNS
experimentNotes: NCI tumour cell line growth inhibition, 48 h

# molecule, TGI
measured = [
    ("COc1ccc(NC(=O)CC(=O)N2N=C(N(c3ccccc3)c3ccccc3)CC2c2ccccc2)cc1 (stereo unspecified)", "> 100 µM"),
    ("[N-]=[N+]=CC(=O)COC(=O)c1ccccc1", "> 100 µM"),
    ("COc1cc2oc(=O)cc(C)c2cc1OC", "> 100 µM"),
    ("O=C(O)COc1cc(-c2ccccc2)nc2ccccc12", "> 100 µM"),
    ("Clc1ccc2c(c1)C(N1CCNCC1)=Nc1ccccc1O2", "12.8 µM"),
    ("O=C(O)CCSC1=NCCN1", "> 100 µM"),
    ("COc1cc2c(c(OC)c1OC)-c1ccc(O)c(=O)cc1[C@@H](NC(C)=O)CC2", "> 100 µM"),
    ("O=C(CSc1nc(-c2ccccc2)c(-c2ccccc2)[nH]1)NNC(=S)Nc1ccccc1", "> 100 µM"),
    ("COC(=O)[C@@]1(C)CCC[C@]2(C(=O)O)C3Cc4occc4[C@H](C)[C@@H]3CCC21 (stereo partly specified)", "> 100 µM"),
    ("Cc1c(C(=O)CC(=O)C(=O)Nc2cc(Cl)ccc2Cl)[n+](=O)c2ccccc2n1[O-]", "> 100 µM"),
    ("COc1cc2c(cc1OC)C(=O)/C(=C/c1ccc(O)cc1)CC2", "> 10 µM"),
    ("C/C=C(/C)c1cnc(CC(C)C)c(=O)[nH]1", "> 100 µM"),
    ("O=C1C(Cl)=C(c2ccc([N+](=O)[O-])cc2)C(=O)c2c(O)cccc21", "5.68 µM"),
    ("CC1CN=C(c2ccc(-c3nc(-c4ccc(C5=NCC(C)N5)cc4)nc(N(C)C)n3)cc2)N1 (stereo unspecified)", "6.73 µM"),
    ("CC1=CC[C@](C)(O)[C@@]2(C)CC[C@H]3C(=C(C)C)C(=O)C[C@]3(C)C[C@H]12", "> 50 µM"),
    ("CN(C)CCNC(=O)c1cc(NC(=O)c2cc(NC(=O)CC/C=C3/[C@@H]4CC[C@H]3N=N4)cn2C)cn1C", "> 100 µM"),
    ("O=C(O)c1cccc(/C=C/c2ccccc2)c1", "> 100 µM"),
    ("C=CCCCCn1c2ccccc2c2c(C)c3cnccc3c(C)c21", "37.9 µM"),
    ("COc1cc(C)cc2c(-c3c(O)cc(O)c4c3C[C@H](C)N[C@H]4C)cc(-c3cc(-c4c(O)cc(O)c5c4C[C@H](C)N[C@H]5C)c4cc(C)cc(OC)c4c3O)c(O)c12", "> 100 µM"),
    ("O=C(N/N=C/c1ccc(Cl)cc1)c1[nH]c2ccc(Cl)cc2c1-c1ccccc1", "> 56.1 µM"),
    ("C/C(=C(/c1ccc(O)cc1)c1ccc(Cl)cc1)c1ccccc1", "2.18 µM"),
    ("COC(=O)c1cc(-c2ccc(OC)cc2)[nH]c1N/N=C/c1c(Cl)cccc1Cl", "11.5 µM"),
    ("CCN1CCCn2c(=O)[nH]c3cc(Br)cc1c32", "> 100 µM"),
    ("Cn1ccc2c(c1=O)C(=O)OC2(C)C", "> 100 µM"),
    ("Oc1c(CN2CCCC2)cc(CSCc2ccccc2)c2cccnc12", "13.5 µM"),
    ("CCOC(=O)Nc1nc2cc(OCC)ccc2s1", "> 100 µM"),
    ("O=c1nc2ccc3sc4ccccc4c(=O)c3n2c(=O)[nH]1", "> 100 µM"),
    ("CC(=O)O[C@H]1CCC2[C@@H]3CCC4NC(=O)C(C#N)C[C@]4(C)C3CC[C@@]21C (stereo partly specified)", "> 10 µM"),
    ("COC(=O)/C=C1\\C(=O)C=C2[C@@H]3C[C@H]4C[C@H](CC[C@@]4(C)N21)C3(C)NC(C)=O (stereo partly specified)", "> 56.7 µM"),
    ("Cn1c(=O)n(CC2CS2)c2ccccc21 (stereo unspecified)", "> 100 µM"),
    ("COc1cc(/C=C/c2ccc(OC)c(OC)c2OC)cc(OC)c1OC", "97.9 µM"),
    ("Nc1ccc(C(=O)CC2(O)C(=O)Nc3c(Cl)cc(Cl)cc32)cc1 (stereo unspecified)", "> 100 µM"),
    ("COc1ccc(/C=C\\c2cc(OC)c(OC)c(OC)c2)c(NS(=O)(=O)c2ccc(Cl)cc2)c1O", "> 100 µM"),
    ("COC(=O)[C@]1(C)C(OC)=CC(=O)C2C1[C@H]1CCC[C@@H]21 (stereo partly specified)", "> 100 µM"),
    ("CCCCCCNC(=O)Oc1ccc(/C(=C(/C)Cc2ccc(OC)cc2)c2ccc(OCCN(C)C)cc2)cc1", "10.4 µM"),
    ("N#Cc1c(N2CCN(c3ccc([N+](=O)[O-])cc3)CC2)[n+](=O)c2ccc(-c3ccc([N+](=O)[O-])cc3)cc2n1[O-]", "> 100 µM"),
    ("Cc1cc(=O)oc2cc(OC(=O)N(CCCl)CCCl)ccc12", "> 100 µM"),
    ("COc1cc2ncnc3c2cc1OCCCCCN(C)Cc1ccc(Br)cc1N3", "> 100 µM"),
    ("CC1(O)CCC2(C)C(=O)C1(C)CCC21OCCO1 (stereo unspecified)", "> 100 µM"),
    ("CC1=C(/C=C/C(C)=C/C=C/C(C)=C/C=C/C=C(C)/C=C/C=C(C)/C=C/C2=C(C)C(=O)C(O)CC2(C)C)C(C)(C)CC(O)C1=O (stereo unspecified)", "> 100 µM"),
    ("O=C1/C(=C/c2ccc(O)cc2)CCC1CNc1ccccc1 (stereo unspecified)", "30.1 µM"),
]
